attributeMeasured: melting point

# example entries with known answers
# compound, melting point
measured = [
    ("OCCCOc1cc(-c2ccccc2)cc(-c2ccccc2)n1", "94 °C"),
    ("Cc1cc(N(C)Cc2ccc(-c3ccc(C(F)(F)F)cc3)nc2)ccc1OCC(=O)O", "199 °C"),
    ("CCOC(=O)c1cnc2n(c1=O)CCCCC2", "82 to 84 °C"),
    ("O=C(NCc1ccc(Cl)cc1)c1cn(CCN2CCOCC2)c2ccc(C#CCO)cc2c1=O", "215 to 218 °C"),
    ("CN1CCN(Cc2nc3ccccc3[nH]2)CC1", "179 to 183 °C"),
]

[in] Consider the compound `COc1nc(C)nc(NC(=O)NS(=O)(=O)c2cccc3c2C(Cl)=CC3)n1` and give its measured melting point.
[out] 168 to 170 °C

[in] Quick one: melting point of CCOc1cccc(-c2nn(C(C)c3oc4ccccc4c(=O)c3-c3cccc(F)c3)c3ncnc(N)c23)c1 (stereo unspecified) ?
[out] 162 to 165 °C

[in] I'd like to know its melting point. The compound in question is O=C(O)c1cnn2c1NC(c1ccccc1)CC2C(F)(F)F (stereo unspecified)
[out] 185 °C

[in] So what does the record say about melting point for `c1ccn(NC2=NCCN2)c1` ?
[out] 183 to 184 °C

[in] Given the entry Cc1nc(OC(C)C(=O)O)nn1-c1ccccc1 (stereo unspecified) , report its measured melting point.
[out] 157 to 159 °C

[in] I am curious: what melting point value has been reported for `NC(=O)Nc1ncc(-c2ccncc2)cn1` ?
[out] > 250 °C

[in] Endpoint output: melting point of CCOC(=O)C(C#N)C1(C#N)C(=O)N(Cc2ccc(F)cc2)c2c(C)cccc21 (stereo unspecified) . Value?
[out] 130 to 132 °C
